Measured EC50 by item
target: Broad substrate specificity ATP-binding cassette transporter ABCG2 (Homo sapiens)
test method notes: blockade of ABCG2-mediated dye efflux – Ig-MXP3 cells, JC-1 substrate, flow cytometry, dose response (AID 489003)
experimental conditions: JC-1 efflux

Reference set, count: 5
Cc1ccc(-c2cc(N3CCN(C(=O)c4ccoc4)CC3)n3nc(-c4ccccc4)cc3n2)o1	1450 nM
O=C(c1ccco1)N1CCN(c2c3c(nc4cc(-c5ccc(F)cc5)nn24)CCC3)CC1	701 nM
O=C1CN(c2cc(-c3ccco3)nc3cc(-c4ccccc4)nn23)CCN1c1ccccc1	1360 nM
CC1CN(C(=O)OC(C)(C)C)CCN1c1cc(-c2ccco2)nc2cc(-c3ccccc3)nn12 (centres undefined)	3440 nM
O=C(c1ccco1)N1CCN(c2cc(-c3ccccc3)nc3ncnn23)CC1	3550 nM

Now consider a different compound.
EC50 reading for "O=C(c1coc2ccccc12)N1CCN(c2cc(-c3ccco3)nc3cc(-c4ccccc4)nn23)CC1" : 1460 nM

====

target: UniProtKB Q9UNQ0
test method notes: blockade of ABCG2-mediated dye efflux – Ig-MXP3 cells, JC-1 substrate, flow cytometry, dose response (AID 489003)
experimental conditions: JC-1 efflux
assay endpoint: pEC50
// pEC50 here means minus log10 of the molar concentration (mol/L)

pEC50 reading for "COc1cccc(-c2cc3nc(C)c(C)c(N4CCN(C(=O)c5ccoc5)CC4)n3n2)c1" : 5.42

pEC50 reading for "Cc1ccc(-c2cc3nc(-c4ccco4)cc(N4CCN(Cc5ccoc5)CC4)n3n2)cc1" : 5.74

pEC50 reading for "O=C(c1ccccc1)N1CCN(c2cc(-c3ccco3)nc3cc(-c4ccccc4)nn23)CC1" : 5.82

pEC50 reading for "COc1cccc(-c2cc(N3CCN(C(=O)c4ccoc4)CC3)n3nc(-c4cccc(OC)c4)cc3n2)c1" : 6.27

pEC50 reading for "COc1cccc(-c2cc3nc(-c4ccco4)cc(N4CCN(C(=O)c5ccoc5)CC4)n3n2)c1" : 5.73

====

target: Broad substrate specificity ATP-binding cassette transporter ABCG2 (Homo sapiens) (UniProt Q9UNQ0)
Sequence (Q9UNQ0 whole entry, looked up): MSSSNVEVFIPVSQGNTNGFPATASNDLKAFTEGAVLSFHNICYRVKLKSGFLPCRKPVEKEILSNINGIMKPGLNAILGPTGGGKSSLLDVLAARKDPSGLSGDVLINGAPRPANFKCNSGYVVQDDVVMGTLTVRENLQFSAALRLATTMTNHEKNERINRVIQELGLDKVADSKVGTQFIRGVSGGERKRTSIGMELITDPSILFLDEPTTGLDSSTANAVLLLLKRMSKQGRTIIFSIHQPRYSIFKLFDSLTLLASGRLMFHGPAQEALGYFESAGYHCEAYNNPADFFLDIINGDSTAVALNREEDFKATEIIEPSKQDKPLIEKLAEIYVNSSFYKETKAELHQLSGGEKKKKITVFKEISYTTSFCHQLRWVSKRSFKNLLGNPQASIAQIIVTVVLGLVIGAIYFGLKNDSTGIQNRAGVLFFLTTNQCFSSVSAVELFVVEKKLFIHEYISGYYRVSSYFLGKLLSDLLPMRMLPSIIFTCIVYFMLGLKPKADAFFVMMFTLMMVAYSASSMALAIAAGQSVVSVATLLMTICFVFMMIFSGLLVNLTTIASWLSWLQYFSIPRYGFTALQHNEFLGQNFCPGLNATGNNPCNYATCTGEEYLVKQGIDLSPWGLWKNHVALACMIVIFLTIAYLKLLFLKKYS
test method notes: blockade of ABCG2-mediated dye efflux – Ig-MXP3 cells, JC-1 substrate, flow cytometry, dose response (AID 489003)
experimental conditions: JC-1 efflux
The source made the active and inactive calls.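 How the source made its calls: active means compounds whose weighted score, built from EC50 under 10 micromolar and fitted span over a set limit, tops 52; inactive means the rest.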
# valid calls are active, inactive; nothing else

QUERY: What outcome does the record of this test show for "CC(=O)N1CCN(c2cc(-c3ccco3)nc3cc(-c4ccccc4)nn23)CC1" ?
RESULT: inactive

QUERY: What outcome does the record of this test show for "CC(=O)N1CCN(c2cc(C)nc3cc(-c4cccc(F)c4)nn23)CC1" ?
RESULT: inactive

QUERY: What outcome does the record of this test show for "CN(CCCN(C)c1cc(-c2ccco2)nc2cc(-c3ccccc3)nn12)C(=O)c1ccoc1" ?
RESULT: active

QUERY: What outcome does the record of this test show for "c1ccc(CN2CCN(c3cc(-c4ccco4)nc4cc(-c5ccccc5)nn34)CC2)cc1" ?
RESULT: active

QUERY: What outcome does the record of this test show for "COc1ccc(-c2cc(N3CCN(C(=O)c4ccoc4)CC3)n3nc(-c4ccccc4)cc3n2)cc1" ?
RESULT: active

QUERY: What outcome does the record of this test show for "COC(=O)c1cccc(-c2cc(N3CCN(C(=O)c4ccoc4)CC3)n3nc(-c4cccc(OC)c4)cc3n2)c1" ?
RESULT: active

====

target: UniProt Q9UNQ0
test method notes: blockade of ABCG2-mediated dye efflux – Ig-MXP3 cells, JC-1 substrate, flow cytometry, dose response (AID 489003)
experimental conditions: JC-1 efflux
assay endpoint: EC50

Reference set, count: 2
O=C(c1ccoc1)N1CCN(c2cc(-c3ccc(F)cc3)nc3cc(-c4ccccc4)nn23)CC1	12100 nM
COc1cccc(-c2cc3nc(-c4cccc(C(F)(F)F)c4)cc(N4CCN(C(=O)c5ccoc5)CC4)n3n2)c1	788 nM

Now consider a different compound.
Fill in: UniProt Q9UNQ0 EC50 for "O=C(c1ccoc1)N1CCN(c2cc(-c3ccco3)nc3cc(-c4cccc(-c5ccco5)c4)nn23)CC1" = 503 nM
